Source listed as ChEMBL document CHEMBL1772997.

Molecular target: Melatonin receptor type 1A (Homo sapiens, UniProt P48039)
Sequence (P48039 whole entry): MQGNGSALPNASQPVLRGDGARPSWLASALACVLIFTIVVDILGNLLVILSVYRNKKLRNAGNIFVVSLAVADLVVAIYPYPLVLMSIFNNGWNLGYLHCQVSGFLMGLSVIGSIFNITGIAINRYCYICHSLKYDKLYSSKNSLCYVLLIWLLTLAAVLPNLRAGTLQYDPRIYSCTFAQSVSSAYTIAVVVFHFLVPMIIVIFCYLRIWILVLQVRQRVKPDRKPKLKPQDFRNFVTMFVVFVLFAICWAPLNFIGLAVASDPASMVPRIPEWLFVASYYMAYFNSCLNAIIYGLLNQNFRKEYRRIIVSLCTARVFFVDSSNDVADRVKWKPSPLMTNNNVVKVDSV
Assay: Agonist activity at human MT1 receptor expressed in CHO cells assessed as inhibition of forskolin-induced cAMP accumulation after 30 mins by EnVision Multilabel Plate Readers
Value Type: EC50 (nM)

1: CC(=O)NCCC1=C(Cc2ccccc2)Cc2ccc3c(c21)CCO3
2: CC(=O)NCCC1=C(CC2CCCCC2)Cc2ccc3c(c21)CCO3
3: CC(=O)NCCC1=C(c2cccc(C(C)C)c2)Cc2ccc3c(c21)CCO3
input: // TODO: order the 3 compounds above by EC50, descending // ordering of labels required in reply
output: 2, 3, 1

* * *

Biological target: Melatonin receptor type 1B (Homo sapiens)
Sequence (P49286 whole entry): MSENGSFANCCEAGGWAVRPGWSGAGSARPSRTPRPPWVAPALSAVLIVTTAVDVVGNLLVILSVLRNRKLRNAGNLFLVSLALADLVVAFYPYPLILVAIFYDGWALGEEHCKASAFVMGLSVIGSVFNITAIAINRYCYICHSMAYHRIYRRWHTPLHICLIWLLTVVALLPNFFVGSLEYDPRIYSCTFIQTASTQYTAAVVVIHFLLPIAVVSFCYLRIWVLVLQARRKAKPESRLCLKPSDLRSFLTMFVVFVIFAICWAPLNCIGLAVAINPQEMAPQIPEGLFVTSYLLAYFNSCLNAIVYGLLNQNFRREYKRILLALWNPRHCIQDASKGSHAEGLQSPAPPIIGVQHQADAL
Value Type: Ki (pM)

COc1cccc(C2=C(CCNC(C)=O)c3c(ccc4c3CCO4)C2)c1 : 9

I: CC(=O)NCCC1=C(Cc2ccsc2)Cc2ccc3c(c21)CCO3
II: COc1ccccc1C1=C(CCNC(C)=O)c2c(ccc3c2CCO3)C1
input: Problem: Given the entries I and II , determine which has the lower reported Ki. Answer format: the label of the selected item.
output: I

* * *

Target: Melatonin receptor type 1A (Homo sapiens)
Assay: Displacement of [125I]-2-iodomelatonin from human MT1 receptor expressed on CHO cells by microscintillation counting
Type: cell-based
Value Type: Ki (nM)

// worked examples, Ki included
CC(=O)NCCC1=C(c2cccc(C(C)C)c2)Cc2ccc3c(c21)CCO3 : 13
CCC(=O)NCCC1=C(C(C)C)Cc2ccc3c(c21)CCO3 : 0.013
CC(=O)NCCC1=C(CC2CCCCC2)Cc2ccc3c(c21)CCO3 : 9.2

a: CC(=O)NCCC1=C(c2cccnc2)Cc2ccc3c(c21)CCO3
b: COc1ccc(C2=C(CCNC(C)=O)c3c(ccc4c3CCO4)C2)cc1
input: // compare: a vs b , metric Ki, want the smaller Provide the label of your selected option as the answer.
output: a

* * *

Molecular target: Melatonin receptor type 1B (Homo sapiens, UniProt P49286)
Test: Agonist activity at human MT2 receptor expressed in CHO cells assessed as inhibition of forskolin-induced cAMP accumulation after 30 mins by EnVision Multilabel Plate Readers
Value Type: pEC50
In simple prose, pEC50 is minus the logarithm base ten of a concentration in moles per litre.

input: Item under review: "CC(=O)NCCC1=C(CC2CCCCC2)Cc2ccc3c(c21)CCO3" . Reported pEC50?
output: 8.88

* * *

Target: Melatonin receptor type 1A (Homo sapiens, UniProt P48039)
pKi: −log10 of the molar value.
Value Type: pKi

Example compounds with recorded pKi:
CC(=O)NCCC1=C(Cc2ccccc2)Cc2ccc3c(c21)CCO3 : 8.57
CC(=O)NCCC1=C(c2csc3ccccc23)Cc2ccc3c(c21)CCO3 : 8.89
COc1cccc(C2=C(CCNC(C)=O)c3c(ccc4c3CCO4)C2)c1 : 10.24

I: CC(=O)NCCC1=C(Br)Cc2ccc3c(c21)CCO3
II: CC(=O)NCCC1=CCc2ccc3c(c21)CCO3
III: COc1ccccc1C1=C(CCNC(C)=O)c2c(ccc3c2CCO3)C1
input: Arrange the 3 compounds from largest to smallest pKi. Form entry: labels listed in requested order.
output: I, II, III
